These data points were gathered from ChEMBL document CHEMBL1133518.

# Subject of test: GABA-A receptor; anion channel (Rattus norvegicus) (UniProt O09028+P15431+P18506+P18508+P19969+P20236+P23574+P23576+P28471+P28473+P30191+P62813+P63079+P63138+Q91ZM7+Q9ES14)
# Assay overview: Displacement of [3H]flunitrazepam from GABA-A receptor of rat forebrain
# Parameters: concentration or dose not given beside the values
Values of Displacement greater than or equal to 40% map to TRUE; values below map to FALSE.

Problem: Hi team, for O=C1CC[C@H]([C@H]2c3ccccc3CCN2S(=O)(=O)c2ccccc2)O1 (racemic) , is the recorded Displacement at or above 40%?
Solution: TRUE

Problem: Hi team, for `CN(C)S(=O)(=O)N1CCc2ccccc2[C@@H]1[C@H]1CCC(=O)O1` , is the recorded Displacement at or above 40%?
Solution: FALSE

Problem: Hi team, for `O=C1CC[C@H]([C@H]2c3ccccc3CCN2S(=O)(=O)c2cccs2)O1` , is the recorded Displacement at or above 40%?
Solution: TRUE

Problem: Hi team, for O=C1CC[C@H]([C@H]2c3ccccc3CCN2S(=O)(=O)c2ccc(Cl)cc2)O1 (racemic) , is the recorded Displacement at or above 40%?
Solution: FALSE

Problem: Hi team, for `CS(=O)(=O)N1CCc2ccccc2[C@@H]1[C@H]1CCC(=O)O1` , is the recorded Displacement at or above 40%?
Solution: FALSE

Problem: Hi team, for `O=C1CC[C@H]([C@H]2c3ccccc3CCN2S(=O)(=O)c2ccc3ccccc3c2)O1` , is the recorded Displacement at or above 40%?
Solution: FALSE

Problem: Hi team, for Cc1ccc(S(=O)(=O)N2CCc3ccccc3[C@@H]2[C@H]2CCC(=O)O2)cc1 (racemic) , is the recorded Displacement at or above 40%?
Solution: TRUE

Problem: Hi team, for `O=C1CC[C@H]([C@H]2c3ccccc3CCN2S(=O)(=O)c2ccc(C(F)(F)F)cc2)O1` , is the recorded Displacement at or above 40%?
Solution: FALSE

Problem: Hi team, for Cc1ccc(S(=O)(=O)N2CCc3ccccc3[C@@H]2[C@H]2CCC(=O)O2)cc1 (stereo in doubt) , is the recorded Displacement at or above 40%?
Solution: TRUE

Problem: Hi team, for Cc1ccc(S(=O)(=O)N2CCc3ccccc3[C@@H]2[C@H]2CCC(=O)O2)cc1 (stereo in doubt; 2c) , is the recorded Displacement at or above 40%?
Solution: FALSE
